From: the supplement of paper PMC11281043

Tested on: Danio rerio embryo/larva
Experiment: max % larvae with any abnormality across tested concentrations; max tested concentration (log10 uM): 2; higher = more toxic; extreme values may be limits of the assay
Conditions: exposure: 6-8 hpf to 5 dpf, scored at 6 dpf
recorded metric: max % larvae

Example entries begin here.
O=C(O)C(F)(F)C(F)(F)C(F)(F)C(F)(F)C(F)(F)C(F)(F)C(F)(F)F [Perfluorooctanoic acid]	16.7%
OC(C(F)(F)F)(C(F)(F)F)C(O)(C(F)(F)F)C(F)(F)F	100%
O=C(O)C(F)(F)C(F)(F)C(F)(F)C(F)(F)C(F)(F)C(F)(F)F	16.7%
OCC(F)(F)C(F)(F)C(F)(F)C(F)(F)C(F)(F)C(F)(F)F	75%

Tested system Danio rerio embryo/larva; max % larvae recorded for NCC(F)(F)C(F)(F)C(F)(F)C(F)(F)C(F)(F)C(F)(F)C(F)(F)F was 33.3%

Tested system Danio rerio embryo/larva; max % larvae recorded for C=CC(=O)OCC(F)(F)C(F)(F)C(F)(F)C(F)(F)C(F)(F)C(F)(F)C(F)(F)C(F)F [1H,1H,9H-Perfluorononyl acrylate] was 16.7%
